Experiment: qHTS RealTime-Glo MT Cell Viability Assay in HEK293 cells - 32 hour (AID 1224868); also: nearly all actives have a fitted effect of over 50% in size
Details: RealTime-Glo luminescence; series mostly up to 76.8 µM
Inconclusive results are not listed. Calls of active or inactive are those of the source. Calls follow the shape of the dose curve; as a rule, active = well fitted cell-killing curve with a large enough effect in the repeat runs; inconclusive = weak or mixed curves, or effect the other way; inactive = flat fitted curve, though single readings scatter.
Possible outcomes: YES for active, NO for inactive

{"compound": "CCCCCCC[N+](CC)(CC)CCCCc1ccc(Cl)cc1", "cat": "YES"}
{"compound": "Cc1cc(O)c2ccccc2c1O", "cat": "YES"}
{"compound": "N=C1C=CC(=C(c2ccc(N)cc2)c2ccc(N)cc2)C=C1", "cat": "YES"}
{"compound": "CNC(=O)c1ccccc1", "cat": "NO"}
{"compound": "CC(C)(C)C1CCC(CC2=C(O)c3ccccc3C(=O)C2=O)CC1 (stereo unspecified)", "cat": "NO"}
{"compound": "CCCCCCCCCCCCCCCCCC[N+](C)(C)C", "cat": "YES"}
{"compound": "CCCCCCCCCCCCCCCS(=O)(=O)Oc1ccccc1", "cat": "NO"}
{"compound": "Cc1cccc(CN2CCN(C(c3ccccc3)c3ccc(Cl)cc3)CC2)c1 (stereo unspecified)", "cat": "NO"}
{"compound": "O=C(c1ccc(O)cc1O)c1ccc(O)cc1O", "cat": "NO"}
{"compound": "N#CC1(c2ccc(F)cc2)CCC(=O)CC1", "cat": "NO"}
{"compound": "C[C@]12CCC(=O)C=C1CC[C@@H]1[C@@H]2[C@@H](O)C[C@@]2(C)[C@H]1CC[C@]2(O)C(=O)COC(=O)CCC(=O)O", "cat": "NO"}
{"compound": "CN(C)c1ccc(SC#N)cc1", "cat": "NO"}
{"compound": "CC(C)(C)CC(C)(C)c1ccc(O)c(Cc2ccc(Cl)cc2Cl)c1", "cat": "YES"}
{"compound": "C=CC(=O)OCC(CO)(COC(=O)C=C)COC(=O)C=C", "cat": "YES"}
{"compound": "O=[N+]([O-])c1ccccc1Nc1ccccc1", "cat": "NO"}
{"compound": "NC(=O)CC[C@@H]1NC(=O)[C@H](Cc2ccccc2)NC(=O)[C@H](Cc2ccc(O)cc2)NC(=O)CCSSC[C@@H](C(=O)N2CCC[C@H]2C(=O)N[C@@H](CCCN=C(N)N)C(=O)NCC(N)=O)NC(=O)[C@H](CC(N)=O)NC1=O", "cat": "NO"}
{"compound": "Cc1onc(-c2ccccc2Cl)c1C(=O)N[C@@H]1C(=O)N2[C@@H]1SC(C)(C)[C@@H]2C(=O)O", "cat": "NO"}
{"compound": "CN(C)CCCOC1(Cc2ccccc2)CCCCCC1", "cat": "NO"}
{"compound": "O=c1[nH]sc2cc(Cl)ccc12", "cat": "NO"}
{"compound": "CCOc1ccc2nc3cc(N)ccc3c(N)c2c1", "cat": "YES"}
{"compound": "Nc1cc(C(F)(F)F)ccc1S", "cat": "NO"}
{"compound": "CC(C)c1ccc2c(c1)CC[C@H]1[C@](C)(CN)CCC[C@]21C", "cat": "YES"}
{"compound": "N=C1N=C(N)c2ccccc21", "cat": "YES"}
{"compound": "C=C(C)C(=O)OCC(O)COc1ccc(C(C)(C)c2ccc(OCC(O)COC(=O)C(=C)C)cc2)cc1 (stereo unspecified)", "cat": "YES"}
{"compound": "C/C=C1/C(=O)C[C@H]2[C@@H]3CCC4=CC(=O)CC[C@]4(C)[C@H]3CC[C@]12C", "cat": "YES"}
{"compound": "Fc1ccc(C(c2ccc(F)cc2)N2CCN(C/C=C/c3ccccc3)CC2)cc1", "cat": "YES"}
